B1: ZNF8 (parent)
chain: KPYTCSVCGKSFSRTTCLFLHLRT

- Variants of: B1
- TEST DETAILS: protein stability index of a GFP-peptide fusion (GPS, HEK-293T) (PSI 1-6); higher = more stable;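 also: lentivirally expressed fusions sorted by FACS into six bins by GFP to DsRed ratio, PSI derived from sequencing read proportions per bin multiplied by bin number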
- CONDITION INFO: c terminus: a fixed tail appended
Would you mind labelling by protein stability index? At or over 2 is true, under is false.

State whether the measured protein stability index reaches 2, counting equality as reaching it, for R23A
true

Given the entry T15Q , answer whether its protein stability index meets or surpasses 2.
true

Hi, just wondering whether G9R shows protein stability index of 2 or higher.
true

// inclusive: protein stability index at least 2? input: S11E
true

Hello, I need to know if F19G has measured protein stability index not below 2. Thanks!
false

Decide: protein stability index of T4A >= 2?
false

Dear colleague, could you confirm whether F19P has protein stability index at or above 2?
true

Given H21L , state whether its protein stability index is at least 2.
true

Does the variant T24N have recorded protein stability index that is 2 or more?
true

Identify whether the reported protein stability index of the following variant is 2 or greater: F19Y
true

Reported protein stability index at or above 2? L18A
true

Hi, just wondering whether Y3E shows protein stability index of 2 or higher.
false

// inclusive: protein stability index at least 2? input: L20Y
false

Does F12Q have a reported protein stability index of at least 2?
false

In plain terms: is recorded protein stability index at least 2 for T15W ?
true

Given S13Y , state whether its protein stability index is at least 2.
false

Where do the numbers come from? From the supplement of paper PMC10567573.
